- measurementTarget: T1, human GCGR (full-length glucagon receptor of 477 amino acids) (human, UniProt P47871 26-477)
- T1 construct: Expressed from a full-length plasmid on CHO / CHO-K1 cells; also called hGCGR
- T1 sequence (P47871 26-477 limits assumed): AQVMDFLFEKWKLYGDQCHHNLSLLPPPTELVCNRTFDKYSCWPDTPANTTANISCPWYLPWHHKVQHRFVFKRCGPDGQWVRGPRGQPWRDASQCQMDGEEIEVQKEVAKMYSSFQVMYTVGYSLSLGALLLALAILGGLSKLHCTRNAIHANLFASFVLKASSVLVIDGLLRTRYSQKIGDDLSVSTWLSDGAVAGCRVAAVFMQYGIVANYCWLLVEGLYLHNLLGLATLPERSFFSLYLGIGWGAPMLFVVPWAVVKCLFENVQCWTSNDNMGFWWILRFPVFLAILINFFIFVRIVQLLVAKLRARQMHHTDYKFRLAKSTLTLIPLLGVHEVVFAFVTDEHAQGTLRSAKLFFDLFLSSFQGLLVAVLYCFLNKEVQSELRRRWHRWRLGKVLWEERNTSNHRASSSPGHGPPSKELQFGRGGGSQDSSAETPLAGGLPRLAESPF
- test: competitive cell ELISA on GCGR-overexpressing CHO cells, biotin-labeled against unlabeled antibody; competitor hu1803-9
Measured competition efficiency IC % accompanies every entry in the list below.
Respond with the bare value in %.

Some binders with recorded competition efficiency IC %:
{"columns": ["binder", "resultUnit", "competition efficiency IC %"],
 "data": [
  ["hu1803-9 (antibody, human IgG4 S228P, kappa, F234A L235A, V domains shown, IgG4-AA / kappa humanized antibody; also called hu1803_VH.1 + hu1803_VL.1B; GCGR monoclonal antibody) VH: EVQLVQSGAEVKKPGASVKVSCKASGYTFTDYWIEWVRQAPGQGLEWMGEILPGSTYTNYNEKFKGRVTMTRDTSTSTVYMELSSLRSEDTAVYYCARGLSTLMAVDYFDYWGQGTTVTVSS VL: DIQMTQSPSSLSASVGDRVTITCRASQDISNYLNWYQQKPGKAVKLLIYYSSTLHSGVPSRFSGSGSGTDYTLTISSLQPEDFATYYCQQTNIFPWTFGGGTKVEIKR", "%", 100],
  ["hu1810-12 (antibody, human IgG4 S228P, kappa, F234A L235A, V domains shown, IgG4-AA / kappa humanized antibody; also called hu1810_VH.1C + hu1810_VL.1B) VH: QVQLVQSGAEVKKPGSSVKVSCKASGGTFSNYAISWVKQAPGQGLEWIGEIYPTSGNTYYNEKFKGKATLTADRSTSTMYMELSSLRSEDTAVYYCASGVITTVVSTDYFDYWGQGTLVTVSS VL: DIQMTQSPSSLSASVGDRVTITCRASLDISNYLNWYQLKPGKAVKLLIYYTSTLHSGVSSRFSGSGSGTEYTLTISSLQPEDFATYYCQQGNMVPYTFGGGTKVEIKR", "%", 100],
  ["ch1808 (antibody, human IgG4 S228P, kappa, F234A L235A, V domains shown, IgG4-AA / kappa chimeric antibody) VH: QVQLQQSGAELARPGASVKLSCKASGDTFTTNGISWVKQRIGQGLEWIGEIYPRSGNTYYNENFKGKATLTADKSSTTAYMELRRLTSEDSAVYFCARSITSVIGADYFDYWGQGTTLTVSS VL: DIQMTQTTSSLSASLGDRVTISCRASQDISNYLNWYQKKPDGTVKLLIYYSSTLHSGVPSRFSGSGSGTDYSLTISNLEQEDIATYFCQQGNTFPWTFGGGTKLEIKR", "%", 46.6]
]}

Attention now turns to another entry.
Exercise: Tell us which competition efficiency IC % value is on record for ch1805 (antibody, human IgG4 S228P, kappa, F234A L235A, V domains shown, IgG4-AA / kappa chimeric antibody; also called chimeric antibody of clone 1805) VH: EVQLQQSGPELVKPGASVKIPCKTSGYTFTDYNMDWVKQSHGRSLEWIGSIDPDNGGTIYNQKFKGKATLTVDKSSSTAYMELRSLTSEDTAVYYCTRDYYGSSSWFAYWGQGTLVTVSA VL: DVVMTQSPATLSVTPGDRVSLSCRASQSISDYLHWYQQKSHESPRLLIKYASQSISGIPSRFSGSGSGSDFTLSINSVEPEDVGVYYCQNGHSFPYTFGGGTKLEIKR
Solution: 100

FYI, the data here is from patent US20220153853A1.
